tested on: ragweed (common ragweed, Ambrosia artemisiifolia); experiment: Test A1 preemergence, ragweed; format: in vivo; settings: 125 g ai/ha, 0 to 100 scale, 0 no effect, 100 complete control
Plant response rating, Ragweed for assorted compounds

compound: CCC1ON=C(c2cc(NS(=O)(=O)C(F)(F)F)c(C)cc2C)C1CC (stereo not shown)
Plant response rating, Ragweed: 10
--
compound: COCC1CC(c2cc(NS(=O)(=O)C(F)(F)F)c(C)cc2C)=NO1 (stereo not shown)
Plant response rating, Ragweed: 70
--
compound: Cc1cc(F)c(C2=NOC3CCCC23)cc1NS(=O)(=O)C(F)(F)F (stereo not shown)
Plant response rating, Ragweed: 20
--
compound: CCOC(=O)N(c1cc(C(=O)N2CCC(c3ccccc3)CC2)c(C)cc1C)S(=O)(=O)C(F)(F)F
Plant response rating, Ragweed: 20
--
compound: CCC1CC(c2cc(NS(=O)(=O)C(F)(F)F)c(C)cc2C)=NO1 (stereo not shown)
Plant response rating, Ragweed: 20

ragweed (common ragweed, Ambrosia artemisiifolia) assay, compound Cc1cc(C2CC2)c(C2=NOC3CCCC23)cc1NS(=O)(=O)C(F)(F)F (stereo not shown) , recorded Plant response rating, Ragweed = 60

ragweed (common ragweed, Ambrosia artemisiifolia) assay, compound Cc1c(NS(=O)(=O)C(F)(F)F)cc(C(=O)N(C)C)c(C)c1Cl , recorded Plant response rating, Ragweed = 80

ragweed (common ragweed, Ambrosia artemisiifolia) assay, compound CCOC(=O)N(c1cc(C(=O)N2C[C@@H](C)O[C@H](C)C2)c(C)c(C)c1C)S(=O)(=O)C(F)(F)F (relative stereo) , recorded Plant response rating, Ragweed = 70

ragweed (common ragweed, Ambrosia artemisiifolia) assay, compound CCC1ON=C(c2cc(N(COC(=O)C(C)(C)C)S(=O)(=O)C(F)(F)F)c(C)cc2C)C1CC (stereo not shown) , recorded Plant response rating, Ragweed = 0

ragweed (common ragweed, Ambrosia artemisiifolia) assay, compound Cc1cc(C)c(C2=NOC3CCCCCC23)cc1NS(=O)(=O)C(F)(F)F (stereo not shown) , recorded Plant response rating, Ragweed = 80

ragweed (common ragweed, Ambrosia artemisiifolia) assay, compound Cc1cc(C)c(N(C(=O)OCC(C)C)S(=O)(=O)C(F)(F)F)cc1C1=NOC2CCCC12 (stereo not shown) , recorded Plant response rating, Ragweed = 30

---

Plant response rating, Foxtail, Giant for assorted molecules
test system: Foxtail, Giant (giant foxtail, Setaria faberi); experiment: Test A1 postemergence, Foxtail, Giant; assay type: in vivo; conditions: Postemergence, 125 g ai/ha; 0 to 100 scale
API doc: respond with a numeric literal and nothing else, no unit.

molecule: Cc1cc(C)c(N(COC(=O)C(C)(C)C)S(=O)(=O)C(F)(F)F)cc1C(=O)N1CCC(c2ccccc2)CC1
Plant response rating, Foxtail, Giant: 20
--
molecule: CCOC(=O)N(c1cc(C(=O)N2CCSCC2)c(C)c(C)c1C)S(=O)(=O)C(F)(F)F
Plant response rating, Foxtail, Giant: 80
--
molecule: CCOC(=O)N(c1cc(C(=O)N2C[C@@H](C)O[C@@H](C)C2)c(C)c(C)c1C)S(=O)(=O)C(F)(F)F
Plant response rating, Foxtail, Giant: 90
--
molecule: Cc1c(NS(=O)(=O)C(F)(F)F)cc(C(=O)N2CCOCC2)c(C)c1Cl
Plant response rating, Foxtail, Giant: 70
--
molecule: Cc1c(NS(=O)(=O)C(F)(F)F)cc(C(=O)N2CCC(F)CC2)c(C)c1C
Plant response rating, Foxtail, Giant: 40
--
molecule: CCOC(=O)N(c1cc(C2=NOC3CCCC23)c(CC)cc1C)S(=O)(=O)C(F)(F)F (stereo not shown)
Plant response rating, Foxtail, Giant: 10
--
molecule: Cc1c(C(=O)N2CCCCC2)cc(N(COC(=O)C(C)(C)C)S(=O)(=O)C(F)(F)F)c(C)c1C
Plant response rating, Foxtail, Giant: 70
--
molecule: CCOC(=O)N(c1cc(C(=O)N2C[C@@H](C)O[C@H](C)C2)c(C)c(C)c1C)S(=O)(=O)C(F)(F)F (relative stereo)
Plant response rating, Foxtail, Giant: 80
--
molecule: Cc1cc(C)c(C2=NOC3OCCCC23)cc1NS(=O)(=O)C(F)(F)F (stereo not shown)
Plant response rating, Foxtail, Giant: 40

Measured Plant response rating, Foxtail, Giant of Cc1cc(C)c(C2=NOC3OCCC23)cc1NS(=O)(=O)C(F)(F)F (stereo not shown) : 90

---

tested on: Oat, Wild (wild oat, Avena fatua); test: Test A1 preemergence, Oat, Wild; type: in vivo; details: 31 g ai/ha, 0 to 100 scale (0 no effect, 100 complete control)
measurement name: Plant response rating, Oat, Wild
API doc: respond with a numeric literal and nothing else, no unit.

Take a look at these entries with their results.
compound: Cc1c(NS(=O)(=O)C(F)(F)F)cc(C(=O)N2CCC(C)CC2)c(C)c1C
Plant response rating, Oat, Wild: 10
--
compound: Cc1c(C(=O)N2CCCCC2)cc(NS(=O)(=O)C(F)(F)F)c(Cl)c1F
Plant response rating, Oat, Wild: 20
--
compound: COC1CCN(C(=O)c2cc(NS(=O)(=O)C(F)(F)F)c(C)c(C)c2C)CC1
Plant response rating, Oat, Wild: 20
--
compound: Cc1cc(C)c(N(COC(=O)OC(C)C)S(=O)(=O)C(F)(F)F)cc1C1=NOC2CCCC12 (stereo not drawn)
Plant response rating, Oat, Wild: 0
--
compound: Cc1cc(C)c(N(C(=O)OC(C)C)S(=O)(=O)C(F)(F)F)cc1C1=NOC2CCCC12 (stereo not drawn)
Plant response rating, Oat, Wild: 0
--
compound: CCOC(=O)N(c1cc(C(=O)N2CCC(c3ccccc3)CC2)c(C)cc1C)S(=O)(=O)C(F)(F)F
Plant response rating, Oat, Wild: 0

API: the following record is the query input.
Oat, Wild (wild oat, Avena fatua) assay, compound Cc1c(C(=O)N2C[C@@H](C)O[C@H](C)C2)cc(N(COC(=O)C(C)(C)C)S(=O)(=O)C(F)(F)F)c(C)c1C (relative stereo) , recorded Plant response rating, Oat, Wild = 0

---

system: Ryegrass, Italian (Italian ryegrass, Lolium multiflorum); assay: Test A postemergence, Ryegrass, Italian; assay type: in vivo; conditions: Postemergence, 125 g ai/ha; visual injury approx. 10 days; 0 to 100 scale (0 no effect, 100 complete control)
Plant response rating, Ryegrass, Italian for assorted compounds
API doc: respond with a numeric literal and nothing else, no unit.

structure as smiles: CCc1cc(-c2cc(N(S(=O)(=O)C(F)(F)F)S(=O)(=O)C(F)(F)F)c(C)cc2C)c(=O)n(C)n1
Plant response rating, Ryegrass, Italian: 0
//
structure as smiles: CCCn1nccc(-c2cc(NS(=O)(=O)C(F)(F)F)c(C)cc2C)c1=O
Plant response rating, Ryegrass, Italian: 0
//
structure as smiles: Cc1cc(C)c(-n2ncccc2=O)cc1NS(=O)(=O)C(F)(F)F
Plant response rating, Ryegrass, Italian: 0

Measured Plant response rating, Ryegrass, Italian of COC1CCN(C(=O)c2cc(NS(=O)(=O)C(F)(F)F)c(C)c(F)c2C)CC1 : 0

Measured Plant response rating, Ryegrass, Italian of CCn1nccc(-c2cc(NS(=O)(=O)C(F)(F)F)c(C)cc2F)c1=O : 50

Measured Plant response rating, Ryegrass, Italian of COc1cc(C)c(NS(=O)(=O)C(F)(F)F)cc1-c1ccnn(C)c1=O : 0

---

system: kochia (Bassia scoparia); test: Test A postemergence, kochia; format: in vivo; conditions: Postemergence, 125 g ai/ha; 0 to 100 scale (0 no effect, 100 complete control)
Plant response rating, Kochia for assorted molecules
API doc: respond with a numeric literal and nothing else, no unit.

Take a look at these entries with their results.
molecule: Cc1cc(Cl)c(C2=NOC3(CCCC3)C2)cc1N(S(=O)(=O)C(F)(F)F)S(=O)(=O)C(F)(F)F [Compound 186]
Plant response rating, Kochia: 10

molecule: CCC(C)C(=O)OCN(c1cc(C2=NOC3(CCCC3)C2)c(C)cc1C)S(=O)(=O)C(F)(F)F (stereo not shown) [Compound 151]
Plant response rating, Kochia: 10

molecule: COC1CCCN(C(=O)c2cc(NS(=O)(=O)C(F)(F)F)c(Cl)cc2C)C1 (stereo not shown) [Compound 146]
Plant response rating, Kochia: 40

molecule: Cc1cc(F)c(C(=O)N2CCCCC2)cc1NS(=O)(=O)C(F)(F)F [Compound 211]
Plant response rating, Kochia: 10

molecule: Cc1c(C(=O)N2CCOCC2)cc(N(S(=O)(=O)C(F)(F)F)S(=O)(=O)C(F)(F)F)c(C)c1F [Compound 174]
Plant response rating, Kochia: 30

molecule: Cc1cc(F)c(C(=O)N2CCC(C#N)CC2)cc1NS(=O)(=O)C(F)(F)F [Compound 236]
Plant response rating, Kochia: 30

molecule: Cc1cc(C)c(C(=O)N2CCC(C#N)CC2)cc1NS(=O)(=O)C(F)(F)F [Compound 162]
Plant response rating, Kochia: 10

molecule: Cc1cc(Cl)c(C2=NOC3(CCCC3)C2)cc1NS(=O)(=O)C(F)(F)F [Compound 185]
Plant response rating, Kochia: 0

molecule: Cc1cc(F)c(C(=O)N(C)C)cc1N(S(=O)(=O)C(F)(F)F)S(=O)(=O)C(F)(F)F [Compound 216]
Plant response rating, Kochia: 20

Measured Plant response rating, Kochia of Cc1c(NS(=O)(=O)C(F)(F)F)cc(C(=O)N2CCCCC2)c(C)c1F [Compound 191] : 0
